AUClast Ratio by entry:
- assayProtocol: Mouse pharmacokinetic study of oral GE with and without ketoconazole, plasma with and without β-glucuronidase treatment
- Assay type: in vivo, male mice (C57BL6J)
- recordedConditions: +KTZ −βgd; reference GE group untreated with βgd
Respond with the number and no other words.

{"columns": ["compound", "AUClast Ratio"],
 "data": [
  ["CCCCC/C=C/C(=O)CCc1ccc(O)c(OC)c1", 8],
  ["CCCCCCCC(O)CC(=O)CCc1ccc(O)c(OC)c1 (stereo not shown)", 59],
  ["CCCCC[C@H](O)CC(=O)CCc1ccc(O)c(OC)c1", 8]
]}

Item under review: CCCCCCCCCC(O)CC(=O)CCc1ccc(O)c(OC)c1 (stereo not shown) [10G, 10-gingerol] . Reported AUClast Ratio?
3

###

- assayProtocol: Liver microsomal stability, mouse
- Format: in vitro ADME, CD1 mouse
- recordedConditions: mouse liver microsomes; substrate 10 µM; protein 0.5 mg/mL; 45 mg protein/g liver
Intrinsic Clearance by entry:
The answer is to be given in mL/min/g Liver; state only the numeric part.

Guide cases for Intrinsic Clearance, answers given:
{"columns": ["compound", "outputUnit", "Intrinsic Clearance"],
 "data": [
  ["CCCCC/C=C/C(=O)CCc1ccc(O)c(OC)c1 [6S, 6-shogaol]", "mL/min/g Liver", 15.7],
  ["CCCCC[C@H](O)CC(=O)CCc1ccc(O)c(OC)c1 [6G, 6-gingerol]", "mL/min/g Liver", 10.5],
  ["CCCCCCCC(O)CC(=O)CCc1ccc(O)c(OC)c1 (stereo not shown) [8G, 8-gingerol]", "mL/min/g Liver", 15.1]
]}

Item under review: CCCCCCCCCC(O)CC(=O)CCc1ccc(O)c(OC)c1 (stereo not shown) [10G, 10-gingerol] . Reported Intrinsic Clearance?
8.0

###

- assayProtocol: Mouse pharmacokinetic study of oral GE with and without ketoconazole, plasma with and without β-glucuronidase treatment
- Format: in vivo, male mice (C57BL6J)
- recordedConditions: GE administered group, mouse plasma; 4 h
Concentration Ratio (Total/Free) of GE Phenolics by entry:

Guide cases for Concentration Ratio (Total/Free) of GE Phenolics, answers given:
{"columns": ["molecule", "reportedMeasurement"],
 "data": [
  ["CCCCC[C@H](O)CC(=O)CCc1ccc(O)c(OC)c1", 491],
  ["CCCCCCCCCC(O)CC(=O)CCc1ccc(O)c(OC)c1 (stereo not shown) [10G, 10-gingerol]", 9],
  ["CCCCCCCC(O)CC(=O)CCc1ccc(O)c(OC)c1 (stereo not shown)", 14]
]}

Item under review: CCCCC/C=C/C(=O)CCc1ccc(O)c(OC)c1 . Reported Concentration Ratio (Total/Free) of GE Phenolics?
0

###

AUC(0-t) by entry:
- assayProtocol: Mouse pharmacokinetic study of oral GE with and without ketoconazole, plasma with and without β-glucuronidase treatment
- Type: in vivo, male mice (C57BL6J)
- recordedConditions: male, C57BL6J, mouse, plasma, po, 250 mg/kg, mouse, 250 mg/kg GE + 50 mg/kg KTZ oral; +KTZ −βgd
The answer is to be given in ng·h/mL; state only the numeric part.

Guide cases for AUC(0-t), answers given:
{"columns": ["compound", "outputUnit", "AUC(0-t)"],
 "data": [
  ["CCCCC[C@H](O)CC(=O)CCc1ccc(O)c(OC)c1", "ng·h/mL", 300],
  ["CCCCCCCCCC(O)CC(=O)CCc1ccc(O)c(OC)c1 (stereo not shown) [10G, 10-gingerol]", "ng·h/mL", 174],
  ["CCCCCCCC(O)CC(=O)CCc1ccc(O)c(OC)c1 (stereo not shown)", "ng·h/mL", 59.1]
]}

Item under review: CCCCC/C=C/C(=O)CCc1ccc(O)c(OC)c1 . Reported AUC(0-t)?
15.1
